# System: MCF7
# test-method-notes: Antiproliferative activity against human MCF7 cells after 72 hrs by MTT assay
# Format: functional, cell-based
# measurement-context: MCF7, 72 h
property-label: pIC50
Numbers only, as −log10 of the molar value.

C=C1C(=O)[C@]23[C@H](O)[C@H]1CC[C@H]2[C@@]12CO[C@]3(O)[C@@H](O)[C@@H]1C(C)(C)CC[C@@H]2O [ORIDONIN] ... 5.17

Now look at this one.
The recorded pIC50 for entry C=CC(=O)N1CC12C(=O)[C@@]13[C@@H]4OC(C)(C)O[C@@]15OC[C@@]1([C@H]([C@@H]5O)C(C)(C)CC[C@@H]1O)[C@@H]3CC[C@H]42 (some centres not stated) equals 5.03

----------
# System: MDA-MB-231
# test-method-notes: Antiproliferative activity against human MDA-MB-231 cells after 72 hrs by MTT assay
# Format: functional, cell-based
# measurement-context: MDA-MB-231, 72 h
property-label: IC50 (µM)
Numbers only, in µM.

C=C1C(=O)[C@]23[C@H](O)[C@H]1CC[C@H]2[C@@]12CO[C@]3(O)[C@@H](O)[C@@H]1C(C)(C)CC[C@@H]2O ... 29.4

Now look at this one.
The recorded IC50 for entry C=CC(=O)N1CC12C(=O)[C@@]13[C@@H]4OC(C)(C)O[C@@]15OC[C@@]1([C@H]([C@@H]5O)C(C)(C)CC[C@@H]1O)[C@@H]3CC[C@H]42 (some centres not stated) equals 8.32

----------
# test-method-notes: Glutathione reactivity in pH 7.4 deuterated phosphate buffer assessed as reaction half life at 10 mg up to 120 mins in presence of 1.5 to 2 equiv of GSH by 1H NMR analysis
# Type: physicochemical
# measurement-context: pH 7.4, 2 h
property-label: t1/2

The recorded t1/2 for entry C=CC(=O)N1CC12C(=O)[C@@]13[C@@H]4OC(C)(C)O[C@@]15OC[C@@]1([C@H]([C@@H]5O)C(C)(C)CC[C@@H]1O)[C@@H]3CC[C@H]42 (stereo partly specified) equals 30 to 60 min

----------
# Tested on: MCF7
# test-method-notes: Antiproliferative activity against human MCF7 cells after 72 hrs by MTT assay
# Assay type: functional, cell-based
The source made the active and inactive calls. No cut-off for these calls is given here.
Answer with one of the outcomes given here: True for active, False for inactive

Use these answered entries as a reference point.
C=CCNc1nc2c(s1)CC(C)(C)[C@H]1[C@H](O)[C@]3(O)OC[C@@]21[C@@H]1CC[C@@H]2[C@@H](O)[C@@]13C(=O)C21CN1C(=O)OCC1c2ccccc2-c2ccccc21 (some centres undefined) ... True
CCC(=O)N1CC12C(=O)[C@@]13[C@@H]4OC(C)(C)O[C@@]15OC[C@@]1([C@H]([C@@H]5O)C(C)(C)CC[C@@H]1O)[C@@H]3CC[C@H]42 (some centres undefined) ... False
C=CCNc1nc2c(s1)CC(C)(C)[C@H]1[C@H](O)[C@]3(O)OC[C@@]21[C@@H]1CC[C@@H]2[C@@H](O)[C@@]13C(=O)C21CN1 (some centres undefined) ... True

// switching to the query compound
Request: # outcome recorded in this test, key = C=CC(=O)N1CC12C(=O)[C@@]13[C@@H]4OC(C)(C)O[C@@]15OC[C@@]1([C@H]([C@@H]5O)C(C)(C)CC[C@@H]1O)[C@@H]3CC[C@H]42 (some centres undefined)
Result: True
